Sourced from PubChem BioAssay (NCI)

Test system: MDA-MB-231 breast
ASSAY_EXPLANATION: NCI-60 one-dose screen, 48 h
ASSAY_SETUP: 10 µM unless noted
The panel holds about 83,000 compounds, 20% with a hit somewhere; the sample as a whole holds those more often. The source made the active and inactive calls. The calls were made as follows: active = growth percent below 10; inactive = the rest.
Labels: Yes = active, No = inactive

| MOLECULE | LABEL_VALUE |
| --- | --- |
| N[C@H]1CCC[C@@H]1NCCCCN1C(=O)c2cccc3cc([N+](=O)[O-])cc(c23)C1=O | No |
| COc1cccc(C(=O)NNc2nc(Cl)nc(Cl)n2)c1 | No |
| Cc1[nH]c(C2CC(c3ccc(C(F)(F)F)c(F)c3)=NN2c2ccccc2)c(C)c1C(=O)NCC(F)(F)F (centres undefined) | No |
| C#COc1cccc(Nc2ncnc3cc(NC(=O)[C@@H](C)Cl)ccc23)c1 | No |
| Cc1ccc(C)c2c(C)c(C(=O)Nc3cccc(-n4cccn4)c3)oc12 | No |
| CCN1CCN(CCNc2nccc(-c3c(-c4ccc(F)c(OC)c4)nc4sccn34)n2)S1(=O)=O | No |
| CCc1ccc(CCC(=O)Nc2ncc(Cc3ccccc3)s2)o1 | No |
| CCN1C(=O)N(CC)C2C1NC(=S)N2/N=C/c1ccc(OC)cc1 (centres undefined) | No |
| CCN(CC)CCCOc1ccc2ncnc(Nc3ccc(Oc4cccc(C(F)(F)F)c4)c(Cl)c3)c2c1 | Yes |
| CCN(CC)c1ccc(/C=N/NC(=O)Cc2ccc(Nc3ccnc(C(F)(F)F)c3)cc2)c(O)c1 | No |
| COc1ccc2c(c1)/C(=N/c1n[nH]c(=S)s1)C(=O)N2 | No |
| CCN(CC)CCN1C(=O)c2cccc3c(/C=C/CN4C(=O)c5cccc6cccc(c56)C4=O)ccc(c23)C1=O | No |
| CC1(C)CC[C@]2(C(=O)N[C@H](CO)Cc3ccccc3)CC[C@]3(C)C(=CC[C@@H]4[C@@]5(C)CCCNC(C)(C)[C@@H]5CC[C@]43C)[C@@H]2C1 | No |
| CC(C)(C)c1cc(Cl)c(O)c(CNCCO)c1 | No |
| C=CCN1C(=O)c2cccc3c(N4CCOCC4)ccc(c23)C1=O | No |
| CCCCC#Cc1c(I)n(C)c(=O)[nH]c1=O | Yes |
| CCn1cc(CNc2ccc(C(=O)Nc3cc4cc(OC)c(OC)cc4c(C)n3)cc2)cn1 | No |
| CCS/C(Nc1ccccc1)=C(\C#N)C(=O)Nc1ccc(OC)cc1 | No |
| CCCCNc1cc(-c2cn[nH]c2-c2cc(C)cc(OC)c2)nc(-c2cccnc2)n1 | No |
| CCN1CCN(CC(=O)Nc2nc3ccc(NCc4ccc(F)cc4)cc3s2)CC1 | No |
| N=c1c(S(=O)(=O)c2ccccc2)cc2c(=O)n3ccccc3nc2n1CC1CCCO1 (centres undefined) | No |
| COc1cc(-c2nc3sccn3c2-c2ccnc(NCCNS(=O)(=O)c3ccc(Cl)cc3)n2)ccc1F | No |
| COc1ccccc1C(=O)Nc1cccc(NC(=O)c2ccoc2C)c1 | No |
| Cc1ccc(C(=O)c2ccc(CC(=O)N=Nc3c(O)[nH]c4ccc(Br)cc34)n2C)cc1 | No |
| N#CC1=C(N)Oc2ccc3ccccc3c2C1c1ccc([N+](=O)[O-])cc1 (centres undefined) | No |
| NC(=O)c1cccc([C@@H]2O[C@H](CO)[C@@H](O)[C@H]2O)c1 | No |
| CCOC(=O)C(Cc1ccc(OC)cc1)C(=O)OCC | No |
| C=C1C(=O)O[C@H]2[C@H]1CC/C(COC(=O)/C=C\C(=O)NCc1ccc(Cn3c(=O)sn(CCCCC)c3=O)cc1)=C\CC[C@@]1(C)O[C@@H]21 | No |
| C=CCn1c(SCC(=O)Nc2ccc(/C(C)=N/O)cc2)nnc1-c1cc(-c2ccc(S(N)(=O)=O)cc2)nc2ccccc12 | No |
| O=C1c2ccccc2C(=O)c2c1cc1c(c2[N+](=O)[O-])OCO1 | No |
| N#C/C(=C\C=C\c1ccc(-c2cc(Cl)ccc2Cl)o1)c1nc2ccccc2s1 | No |
| Clc1ccc(-c2cc(-c3ccccc3)nc(NCCNc3ccnc4cc(Cl)ccc34)n2)cc1 | Yes |
| CNC1=CC(=O)c2c(C(=O)OC)c(C)[n+]([O-])c(C)c2C1=O | No |
| N#C/C(=C\c1ccc([N+](=O)[O-])cc1)n1nnc2cc(F)c(F)cc21 | Yes |
| N#Cc1cncc(-c2ccc3ncnc(Nc4cccc(Cl)c4)c3c2)c1 | No |
| CCOc1c(OC)cc2c(c1O)C(=O)N[C@@H]1[C@@H](O)[C@@H](O)[C@H](O)C[C@@H]21 | No |
| COc1ccc2c(c1)c(-c1nc(-c3c[nH]c4ncccc34)cs1)cn2CCCN1CCOCC1 | Yes |
| COC(=O)c1c2c(c(C)[n+]([O-])c1C)C(=O)C(NCc1cccc(Cl)c1)=CC2=O | Yes |
| O=C(c1c[nH]c2ccccc12)c1n[nH]c(=S)n1-c1cccc(Br)c1 | No |
